Target: human PAD4 (Homo sapiens)
Construct: human PAD4 (NM_012387), A2-P663, was PCR amplified; His-SUMO (N, cleaved yes)
Test: In vitro PAD4 BAEE biochemical assay
Conditions: BAEE substrate 3 mM, 5 nM PAD4, 2 mM calcium chloride; geometric mean of multiple experiments
pIC50: −log10 of the molar value.
Assign label 1 whenever pIC50 does not fall below 7; assign label 0 whenever it does.

{"columns": ["structure.smiles.string", "target.entity", "qualitative.label"],
 "data": [
  ["COc1cc(C(=O)N2C[C@H](N)[C@@H]3CC[C@H]2C3)cc2nc(-c3cc4ccc5nc4n3CCCCCc3nc(C(F)(F)F)ccc3C(=O)N[C@@H]5C)n(C)c12", "human PAD4 (Homo sapiens)", "label 1"],
  ["COc1cc(C(=O)N2CC[C@@H](OC)[C@@H](N)C2)cc2nc(-c3cc4ccc5nc4n3CCCCCc3ccnc(Cl)c3C(=O)N[C@@H]5C)n(C)c12", "human PAD4 (Homo sapiens)", "label 1"],
  ["COc1cc(C(=O)N[C@@H]2CNC[C@@H]3C[C@@H]32)cc2nc(-c3cc4ccc5nc4n3CCCCCCC(C)(C)C(=O)N[C@@H]5C)n(C)c12", "human PAD4 (Homo sapiens)", "label 0"],
  ["C[C@H]1NC(=O)[C@@H]2C[C@H]2CCCCCn2c(-c3nc4cc(C(=O)N[C@H]5CNCC[C@@H]5F)c(F)cc4n3[C@H]3C[C@H]3F)cc3ccc1nc32", "human PAD4 (Homo sapiens)", "label 1"]
]}

====

Molecular target: human PAD4 (Homo sapiens, UniProt Q9UM07)
Construct: human PAD4 (NM_012387), A2-P663, was PCR amplified; His-SUMO (N, cleaved yes)
Sequence (Q9UM07 2-663): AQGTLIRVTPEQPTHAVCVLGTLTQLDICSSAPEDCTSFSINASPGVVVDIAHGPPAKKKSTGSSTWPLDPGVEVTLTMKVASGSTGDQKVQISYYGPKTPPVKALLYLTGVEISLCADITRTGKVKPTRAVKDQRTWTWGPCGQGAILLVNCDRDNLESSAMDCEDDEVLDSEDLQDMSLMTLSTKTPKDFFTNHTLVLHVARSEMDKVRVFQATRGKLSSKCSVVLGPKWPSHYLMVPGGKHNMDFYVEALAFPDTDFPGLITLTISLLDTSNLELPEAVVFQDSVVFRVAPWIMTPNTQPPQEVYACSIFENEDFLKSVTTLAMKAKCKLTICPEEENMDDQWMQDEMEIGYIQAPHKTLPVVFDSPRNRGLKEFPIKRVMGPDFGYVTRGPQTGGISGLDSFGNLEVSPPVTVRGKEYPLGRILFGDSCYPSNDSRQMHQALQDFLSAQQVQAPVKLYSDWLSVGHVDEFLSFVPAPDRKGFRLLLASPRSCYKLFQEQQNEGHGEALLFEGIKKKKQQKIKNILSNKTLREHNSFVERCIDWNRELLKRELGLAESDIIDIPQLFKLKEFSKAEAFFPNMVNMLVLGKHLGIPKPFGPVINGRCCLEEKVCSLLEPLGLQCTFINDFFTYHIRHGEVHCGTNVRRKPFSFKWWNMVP
Assay: In vitro PAD4 BAEE biochemical assay
Details: BAEE substrate 3 mM, 5 nM PAD4, 2 mM calcium chloride; geometric mean of multiple experiments

{"columns": ["compound", "IC50 [nM]"],
 "data": [
  ["C[C@H]1NC(=O)[C@@H]2C[C@H]2CCCCCn2c(-c3nc4cc(C(=O)N[C@H]5CNCC[C@@H]5F)c(F)cc4n3CCOc3ccccn3)cc3ccc1nc32 [Example 434]", 41],
  ["COc1cc(C(=O)N2CCC[C@@H](N)C2)cc2nc(-c3cc4ccc5cc4n3CCCCCOC(C)(C)C(=O)N[C@@H]5C)n(C)c12 [Example 156]", 56],
  ["COc1cc(C(=O)N2[C@H]3CC[C@@H]2[C@H](N)C3)cc2nc(-c3cc4ccc5nc4n3CCC3(CCOCC(=O)N[C@@H]5C)CC3)c(C)n12 [Example 330]", 80],
  ["C[C@H]1NC(=O)[C@@]2(C)C[C@@H]2C/C=C/C(F)(F)Cn2c(-c3nc4cc(C(=O)N[C@H]5CNCC[C@@H]5F)c(F)cc4n3C)cc3ccc1nc32 [Example 552]", 61],
  ["COc1cc(C(=O)N2[C@H]3CC[C@@H]2[C@H](N)C3)cc2nc(-c3cc4ccc5nc4n3CCCCCCc3ccccc3C(=O)N[C@@H]5C)n(C)c12 [Example 40]", 24],
  ["C[C@H]1NC(=O)c2ccccc2CC[C@H]2C[C@@H]2Cn2c(-c3nc4cc(C(=O)N[C@H]5CNCC[C@@H]5F)c(F)cc4n3C)cc3ccc1nc32 [Example 351]", 97],
  ["COC(=O)[C@H]1CC[C@@H](NC(=O)c2cc(OC)c3c(c2)nc(-c2cc4ccc5nc4n2CCCCCCC(C)(C)C(=O)N[C@@H]5C)n3C)CN1 [Example 71]", 560],
  ["CO[C@@H]1CCN(C(=O)c2cc(F)c3c(c2)nc(-c2cc4ccc5nc4n2CCCCCc2ccnc(C(F)(F)F)c2C(=O)N[C@@H]5C)n3C2CC2)C[C@@H]1N [Example 836]", 32],
  ["COc1cc(C(=O)N2[C@H]3CC[C@@H]2[C@H](N)C3)cc2nc(-c3cc4ccc5nc4n3CCCCCCNC(=O)CC5C)n(C)c12 (some centres unmarked) [Example 227]", 154],
  ["COc1cc(C(=O)N2CCC[C@@H](N)C2)cc2nc(-c3cc4ccc5cc4n3CCCCCCNC(=O)c3ccccc3-5)n(C)c12 [Example 51]", 215],
  ["COc1cc(C(=O)N2CC[C@@H](OC)[C@@H](N)C2)cc2nc(-c3cc4ccc5nc4n3CCCCC[C@H]3C[C@H]3C(=O)N[C@@H]5C)n(C)c12 [Example 525]", 78],
  ["COc1cc(C(=O)N2CCC[C@@H](N)C2)cc2nc(-c3cc4ccc5cc4n3CCCOC[C@H]3C[C@H]3C(=O)N[C@@H]5C)n(C)c12 [Example 307]", 82],
  ["CO[C@@H]1CCN(C(=O)c2cc(F)c3c(c2)nc(-c2cc4ccc5nc4n2CCCCCc2cncc(F)c2C(=O)N[C@@H]5C)n3C2CC2)C[C@@H]1N [Example 662]", 32],
  ["COCCn1c(-c2cc3ccc4nc3n2CCCCC[C@@H]2C[C@H]2C(=O)N[C@@H]4C)nc2cc(C(=O)N[C@H]3CNCC[C@@H]3F)cc(OC)c21 [Example 431]", 41],
  ["COc1cc(C(=O)N2[C@H]3CC[C@@H]2[C@H](N)C3)cc2nc(-c3cc4ccc5nc4n3CCCCCCC(=O)Nc3ccccc3-5)n(C)c12 [Example 87]", 83],
  ["C[C@H]1NC(=O)[C@H]2C[C@@H]2C/C=C/C(F)(F)Cn2c(-c3nc4cc(C(=O)N[C@H]5CNCC[C@@H]5F)c(F)c(F)c4n3C)cc3ccc1nc32 [Example 547]", 50],
  ["COc1cc(C(=O)N2CCC[C@@H](N)C2)cc2nc(-c3cc4ccc5nc4n3CCCCCCc3cn(nn3)C5C)n(C)c12 (some centres unmarked) [Example 25]", 775],
  ["COc1cc(C(=O)N2CCC[C@@H](N)C2)cc2nc(-c3cc4ccc5nc4n3C[C@@H]3C[C@H]3COC[C@@H](C)C(=O)N[C@@H]5C)n(C)c12 [Example 265]", 81],
  ["C[C@H]1NC(=O)c2ccncc2CCCCCn2c(-c3nc4cc(C(=O)N[C@H]5CNCC[C@@H]5F)c(F)cc4n3C3CC3)cc3ccc1nc32 [Example 353]", 29],
  ["COc1cc(C(=O)N2[C@H]3CC[C@@H]2[C@H](N)C3)cc2nc(-c3cc4ccc5nc4n3CCCCCCNC(=O)c3ncccc3-5)n(C)c12 [Example 91]", 82],
  ["COc1nccc2c1C(=O)N[C@H](C)c1ccc3cc(-c4nc5cc(C(=O)N6CC[C@@H](OC)[C@@H](N)C6)cc(OC)c5n4C)n(c3n1)CCCCC2 [Example 863]", 69],
  ["C[C@H]1NC(=O)c2nccnc2CCCCCn2c(-c3nc4cc(C(=O)N5C[C@H](N)[C@@H]6CC[C@H]5C6)c(F)c(F)c4n3C3CC3)cc3ccc1nc32 [Example 877]", 40],
  ["COc1cc(C(=O)N2CCC[C@@H](N)C2)cc2nc(-c3cc4ccc5nc4n3CCCCOCC(=O)N3CCC[C@H]53)n(C)c12 [Example 109]", 303]
]}
